Where these numbers come from: patent US20150037348A1

# TARGET_ENTITY: T1, human IL-12 (human, UniProt P29459 23-219; P29460 23-328)
# T1 sequence (looked up) 1: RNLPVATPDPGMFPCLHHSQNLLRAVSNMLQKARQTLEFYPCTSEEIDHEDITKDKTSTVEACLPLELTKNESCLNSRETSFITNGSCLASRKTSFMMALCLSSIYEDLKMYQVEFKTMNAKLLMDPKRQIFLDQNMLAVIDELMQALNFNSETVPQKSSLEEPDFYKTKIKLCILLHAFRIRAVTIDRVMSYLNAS
# T1 sequence (looked up) 2: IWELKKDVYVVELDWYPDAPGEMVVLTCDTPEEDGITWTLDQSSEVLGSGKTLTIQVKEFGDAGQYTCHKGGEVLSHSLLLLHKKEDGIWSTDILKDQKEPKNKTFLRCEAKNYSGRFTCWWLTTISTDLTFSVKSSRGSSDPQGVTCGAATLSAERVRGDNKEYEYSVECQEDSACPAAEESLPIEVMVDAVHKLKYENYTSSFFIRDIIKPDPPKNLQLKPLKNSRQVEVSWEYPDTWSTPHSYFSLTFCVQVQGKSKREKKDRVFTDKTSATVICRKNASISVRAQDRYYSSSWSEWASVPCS
# EXPERIMENT: cell-based or functional assay

BINDER	PHA assay IC50
78-34 (scFv, V domains shown, scFv) VH: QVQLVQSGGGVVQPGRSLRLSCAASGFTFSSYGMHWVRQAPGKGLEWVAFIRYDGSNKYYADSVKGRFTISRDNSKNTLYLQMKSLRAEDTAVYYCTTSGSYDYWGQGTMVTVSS VL: SYVLTQPPSVSGTPGQRVTISCSGGRSNIGSNTVKWYQQLPGTAPKLLIYGNDQRPSGVPDRFSGSKSGTSASLAITGVQAEDEADYYCQSYDRGFTGSRVFGTGTKVTVL	600 nM
136-15 germline (scFv, V domains shown) VH: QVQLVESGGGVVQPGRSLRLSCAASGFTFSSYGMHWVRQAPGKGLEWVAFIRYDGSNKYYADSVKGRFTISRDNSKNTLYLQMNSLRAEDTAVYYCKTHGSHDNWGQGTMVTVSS VL: QSVLTQPPSVSGAPGQRVTISCSGSRSNIGSNTVKWYQQLPGTAPKLLIYGNDQRPSGVPDRFSGSKSGTSASLAITGLQAEDEADYYCQTYDKGFTGSSVFGTGTKVTVL	6 nM
149-4 (scFv, V domains shown, scFv) VH: QVQLVQSGGGVVQPGRSLRLSCAASGFTFSSYGMHWVRQAPGKGLEWVAFIRYDGSNKYYADSVKGRFTISRDNSKNTLYLQMKSLRAEDTAVYYCTTHGSHDNWSQGTMVTVSS VL: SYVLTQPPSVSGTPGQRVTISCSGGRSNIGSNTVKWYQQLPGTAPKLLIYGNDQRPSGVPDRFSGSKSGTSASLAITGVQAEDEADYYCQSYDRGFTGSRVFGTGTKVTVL	3 nM
103-14 & 9 (scFv, V domains shown, scFv) VH: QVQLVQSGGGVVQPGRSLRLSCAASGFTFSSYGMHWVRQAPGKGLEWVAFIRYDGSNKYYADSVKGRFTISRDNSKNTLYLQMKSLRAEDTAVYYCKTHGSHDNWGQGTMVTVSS VL: SYVLTQPPSVSGTPGQRVTISCSGGRSNIGSNTVKWYQQLPGTAPKLLIYGNDQRPSGVPDRFSGSKSGTSASLAITGVQAEDEADYYCQSYDRGFTGSMVFGTGTKVTVL	1.2 nM
70-1 (scFv, V domains shown, scFv) VH: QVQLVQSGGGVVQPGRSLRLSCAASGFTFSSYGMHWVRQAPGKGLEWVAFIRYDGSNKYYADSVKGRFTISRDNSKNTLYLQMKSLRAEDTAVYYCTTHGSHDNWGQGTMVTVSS VL: SYVLTQPPSVSGTPGQRVTISCSGGRSNIGSNTVKWYQQLPGTAPKLLIYGNDQRPSGVPDRFSGSKSGTSASLAITGVQAEDEADYYCQSYDSSLRGSRVFGTGTKVTVL	200 nM
